tested.system: T1, SWSAP1 K18A (Walker A);hSWS1 (Homo sapiens;Homo sapiens, UniProt Q6NVH7;Q19AV6 22-250;1-140, K39A|)
T1 sequence 1: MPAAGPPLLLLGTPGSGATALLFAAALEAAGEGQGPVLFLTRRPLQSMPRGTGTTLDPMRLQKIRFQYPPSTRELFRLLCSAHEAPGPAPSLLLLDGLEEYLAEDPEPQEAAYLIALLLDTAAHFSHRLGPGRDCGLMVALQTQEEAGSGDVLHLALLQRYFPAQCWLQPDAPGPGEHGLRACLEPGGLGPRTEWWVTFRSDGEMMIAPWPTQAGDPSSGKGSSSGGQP
T1 sequence 2: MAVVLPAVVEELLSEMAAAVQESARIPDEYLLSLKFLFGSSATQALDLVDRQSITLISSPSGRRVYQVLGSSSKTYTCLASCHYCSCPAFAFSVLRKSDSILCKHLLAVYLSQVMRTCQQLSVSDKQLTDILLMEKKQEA
test.description: fluorescence polarization; 2 mM ADP; FPA: 5 nM 6-FAM DNA, 37 C, 2 mM nucleotide where stated (buffer not given in material); EMSA: 0.05 uM 6-FAM DNA, 5%/15% native PAGE; RAD51 filaments: 2 mM ATP
reported.conditions: protein: recombinant;recombinant; tags: N-terminal 6xHis-TEV, cleaved;none; copies: 1;1; label: 3' 6-FAM

- binder: "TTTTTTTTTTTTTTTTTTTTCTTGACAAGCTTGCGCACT (ssDNA) [ss39]"
  value.units: "µM"
  Kd: 7.4
